Cited source: the supplement of paper PMC7877785

test: self-splicing fitness, log relative to wild type (ln ratio); higher = more splicing; Tetrahymena group I intron in knt gene, E. coli kanamycin selection, DiMSum; sequences stand for … in CUCUCU…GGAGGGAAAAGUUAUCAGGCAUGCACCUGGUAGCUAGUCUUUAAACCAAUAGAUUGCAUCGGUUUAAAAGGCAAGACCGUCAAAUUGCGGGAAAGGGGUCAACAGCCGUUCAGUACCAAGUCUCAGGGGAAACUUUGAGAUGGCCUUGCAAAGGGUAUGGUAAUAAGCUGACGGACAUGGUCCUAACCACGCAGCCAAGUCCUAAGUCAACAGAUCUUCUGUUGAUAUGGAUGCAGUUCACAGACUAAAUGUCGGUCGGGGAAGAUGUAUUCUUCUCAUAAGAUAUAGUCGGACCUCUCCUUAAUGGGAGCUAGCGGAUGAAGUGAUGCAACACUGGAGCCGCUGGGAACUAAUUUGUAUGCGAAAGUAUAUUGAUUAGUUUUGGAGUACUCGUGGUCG; conditions: 30 °C;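 note: selection with 25 µg/mL kanamycin versus none on LB agar overnight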

PRIMARY_SEQUENCE | self-splicing fitness (ln)
CAAGAGCAAUAUUACGAUUA | -1.92
UAAUAGCAAUAUUACGCGCG | -0.452
CCGGAGCAAUAUUACGGCGU | -4.4
CCUUAGCAAUAUUACGCAUG | -3.78
UCGGAGCAAUAUUACGAGCG | -2.48
CCAAAGCAAUAUUACGUGGA | -3.55
CCGAAGCAAUAUUACGGCUA | -2.89
GCUGAGCAAUAUUACGCCCG | -2.34
UAUUAGCAAUAUUACGUCAU | -3.69
UAGGAGCAAUAUUACGUGAA | -1.66
GCCGAGCAAUAUUACGUUGC | -3.96
GACUAGCAAUAUUACGGGAA | -2.32
GGACAGCAAUAUUACGUCCC | -3.31
UCUCAGCAAUAUUACGGGUA | -0.605
CUACAGCAAUAUUACGUAAU | -3.8
GUUCAGCAAUAUUACGAUUC | 0.118
UGCUAGCAAUAUUACGGUAA | -1.03
UAUAAGCAAUAUUACGGACU | -2.12
UCAUAGCAAUAUUACGAAGA | -2.06
UUCAAGCAAUAUUACGUUCU | -2.22
AAAAAGCAAUAUUACGAGAA | -2.33
UAAAAGCAAUAUUACGCGUG | -0.88
GUACAGCAAUAUUACGCCCA | -1.14
AUUGAGCAAUAUUACGUAUC | -1.48
GACGAGCAAUAUUACGUACC | -3.61
UACAAGCAAUAUUACGCCGA | -1.29
ACGAAGCAAUAUUACGCUUU | -3.88
UGGGAGCAAUAUUACGGGGA | -2.94
CGCCAGCAAUAUUACGGAAC | -2.64
AAUAAGCAAUAUUACGAGAG | -2.47
CAGCAGCAAUAUUACGCCGA | -1.81
AAAGAGCAAUAUUACGUAGU | -2.39
CGGAAGCAAUAUUACGUGGU | -3.62
GGUUAGCAAUAUUACGUCGU | -0.855

====

// reported self-splicing fitness (ln) for each item listed
assay: self-splicing fitness, log relative to wild type (ln ratio); higher = more splicing; Tetrahymena group I intron in knt gene, E. coli kanamycin selection, DiMSum; sequences stand for … in CUCUCU…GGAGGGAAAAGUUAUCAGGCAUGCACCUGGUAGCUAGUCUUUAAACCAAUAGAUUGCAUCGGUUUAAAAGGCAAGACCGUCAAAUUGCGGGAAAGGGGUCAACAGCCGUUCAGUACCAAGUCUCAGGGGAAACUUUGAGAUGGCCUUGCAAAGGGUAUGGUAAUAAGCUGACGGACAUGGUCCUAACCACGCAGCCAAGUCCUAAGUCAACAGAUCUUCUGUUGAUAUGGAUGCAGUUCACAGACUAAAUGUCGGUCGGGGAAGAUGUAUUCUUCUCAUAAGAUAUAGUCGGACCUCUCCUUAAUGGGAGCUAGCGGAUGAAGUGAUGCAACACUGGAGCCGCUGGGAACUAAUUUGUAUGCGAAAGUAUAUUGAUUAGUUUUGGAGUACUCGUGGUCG; details: 30 °C

PRIMARY_SEQUENCE | self-splicing fitness (ln)
GAAAAGCAAUAUUACGUCUC | -1.3
GAGGAGCAAUAUUACGACGA | -1.2
UUAUAGCAAUAUUACGAUAA | -0.51
CCCUAGCAAUAUUACGGCCU | -2.9
CUGUAGCAAUAUUACGGUUC | -3.87
GACCAGCAAUAUUACGUGCG | -0.787
AACGAGCAAUAUUACGCCAU | -2.91
GCAUAGCAAUAUUACGGAAG | -3.8
AUCAAGCAAUAUUACGAAGA | -1.66
UUCGAGCAAUAUUACGGUGC | -3.24
CCCGAGCAAUAUUACGGUGU | -3.28
GCAUAGCAAUAUUACGGUAU | -2.86
AGCUAGCAAUAUUACGAACU | -0.899
UCAAAGCAAUAUUACGCAGC | -3.94
CCAUAGCAAUAUUACGAACG | -0.593
GGUUAGCAAUAUUACGUUGU | -2.02
GGGUAGCAAUAUUACGACCA | -0.444
UAAGAGCAAUAUUACGGGCA | -2.73
GCUCAGCAAUAUUACGACGG | -2.33
UCGUAGCAAUAUUACGAUAU | -3.38
AGGUAGCAAUAUUACGUCCC | -1.02
GAUGAGCAAUAUUACGUUAG | -3.42
GACAAGCAAUAUUACGACAA | -0.668
UUCGAGCAAUAUUACGCUUU | -3.89
AAACAGCAAUAUUACGCGGC | -3.54
UCCUAGCAAUAUUACGGUAU | -3.23
ACGUAGCAAUAUUACGAGUA | -3.15
AGCAAGCAAUAUUACGGAAU | -3.44
CUCCAGCAAUAUUACGUUUU | -3.38
UGCAAGCAAUAUUACGGCUA | 0.00387
GUUUAGCAAUAUUACGCGCU | -1.52
CGCUAGCAAUAUUACGGGCA | -0.187
UAAAAGCAAUAUUACGUACA | -1.05
AGCAAGCAAUAUUACGGUAU | -2.35
